ASSAY PROTOCOL: Solubility of the statin in formulation carriers
REPORTED CONDITIONS: aqueous-based formulation, water
READOUT LABEL: solubility

QUERY: Please look up its solubility: CC[C@H](C)C(=O)O[C@H]1C[C@H](O)C=C2C=C[C@H](C)[C@H](CC[C@@H](O)C[C@@H](O)CC(=O)O)[C@H]21 [pravastatin sodium]
RESULT: ≥ 150 mg/mL

====

ASSAY PROTOCOL: clinical
REPORTED CONDITIONS: male, human, in vivo, 40 mg
READOUT LABEL: AUC(0-inf) (ng·h/mL)
Dear colleague, please return just the value in ng·h/mL, with no unit written.

QUERY: Look at this compound and give its reported AUC(0-inf). CCC(C)(C)C(=O)O[C@H]1C[C@@H](C)C=C2C=C[C@H](C)[C@H](CC[C@@H](O)C[C@@H](O)CC(=O)O)[C@H]21 [Simvastatin Acid, simvastatin acid]
RESULT: 47.6

====

ASSAY PROTOCOL: Phase 1 pharmacokinetic study of sublingual statin sprays in healthy male subjects
REPORTED CONDITIONS: male, human, plasma, 20 mg, Tmax (median), sublingual spray, 20 mg, healthy male subjects; simvastatin acid measured after simvastatin spray
The reader will find reported Tmax values listed item by item below.
Kindly write the number and append the unit.

INSERT INTO results (compound_smiles, readout_label, measured_value) VALUES
  ('CCC(C)(C)C(=O)O[C@H]1C[C@@H](C)C=C2C=C[C@H](C)[C@H](CC[C@@H]3C[C@@H](O)CC(=O)O3)[C@H]21', 'Tmax', '1.88 h');

We next turn to a different compound, shown below.
QUERY: Would you kindly share the measured Tmax for CC[C@H](C)C(=O)O[C@H]1C[C@H](O)C=C2C=C[C@H](C)[C@H](CC[C@@H](O)C[C@@H](O)CC(=O)O)[C@H]21 ?
RESULT: 1.3 h

====

ASSAY PROTOCOL: Phase 1 pharmacokinetic study of sublingual statin sprays in healthy male subjects
REPORTED CONDITIONS: male, human, plasma, 40 mg
READOUT LABEL: AUC(0-inf) (ng·h/mL)
I only need the number, in ng·h/mL, no unit after it.

QUERY: Look up AUC(0-inf): CC[C@H](C)C(=O)O[C@H]1C[C@H](O)C=C2C=C[C@H](C)[C@H](CC[C@@H](O)C[C@@H](O)CC(=O)O)[C@H]21 [Pravastatin, pravastatin]
RESULT: 80.6

====

ASSAY PROTOCOL: clinical
REPORTED CONDITIONS: male, human, in vivo, 40 mg
READOUT LABEL: AUC(0-t) (ng·h/mL)
Give the quantity in ng·h/mL, number only.

QUERY: Report AUC(0-t) for CCC(C)(C)C(=O)O[C@H]1C[C@@H](C)C=C2C=C[C@H](C)[C@H](CC[C@@H](O)C[C@@H](O)CC(=O)O)[C@H]21 [Simvastatin Acid, simvastatin acid] please.
RESULT: 32.5

====

ASSAY PROTOCOL: clinical
REPORTED CONDITIONS: male, human, in vivo, 20 mg
READOUT LABEL: AUC(0-inf) (ng·h/mL)
Kindly provide the numeric value in ng·h/mL only, without the unit symbol.

QUERY: Fill in: AUC(0-inf) of CCC(C)(C)C(=O)O[C@H]1C[C@@H](C)C=C2C=C[C@H](C)[C@H](CC[C@@H](O)C[C@@H](O)CC(=O)O)[C@H]21 [Simvastatin Acid, simvastatin acid] is ___
RESULT: 37.7
